Parameter 'readout' = EC50; parameter 'system' = Orexin receptor type 2 (Homo sapiens, UniProt O43614).
Sequence (O43614 whole entry): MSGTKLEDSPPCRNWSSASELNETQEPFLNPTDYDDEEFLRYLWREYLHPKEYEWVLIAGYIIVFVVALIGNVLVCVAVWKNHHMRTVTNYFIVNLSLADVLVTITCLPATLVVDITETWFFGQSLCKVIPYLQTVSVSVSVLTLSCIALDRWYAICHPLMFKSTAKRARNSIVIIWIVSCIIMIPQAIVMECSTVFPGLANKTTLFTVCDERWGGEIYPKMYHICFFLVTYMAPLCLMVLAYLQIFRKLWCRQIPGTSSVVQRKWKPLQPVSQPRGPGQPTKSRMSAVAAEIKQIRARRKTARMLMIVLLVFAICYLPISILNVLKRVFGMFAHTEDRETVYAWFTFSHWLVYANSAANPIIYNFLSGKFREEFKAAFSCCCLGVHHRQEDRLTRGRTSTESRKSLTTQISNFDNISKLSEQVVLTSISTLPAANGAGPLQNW
measurement.label: EC50 (nM)

- compound: "COc1cccc(CC(=O)N(C)C2CCCc3ccc(NS(=O)(=O)c4cc(CCCC(=O)N(C)C)ccc4OC)cc32)c1 (stereo not drawn)"
  measurement.label: "EC50"
  unit.label: "nM"
  qualifier.sign: "="
  data.value: 1020
- compound: "COc1cccc(CC(=O)N(C)C2CCCc3ccc(NS(=O)(=O)c4cc(/C=C/C(=O)N(C)c5ccncc5)ccc4OC)cc32)c1 (stereo not drawn)"
  measurement.label: "EC50"
  unit.label: "nM"
  qualifier.sign: "="
  data.value: 275
- compound: "COCCNC(=O)/C=C/c1ccc(OC)c(S(=O)(=O)Nc2ccc3c(c2)C(N(C)C(=O)Cc2cccc(OC)c2)CCC3)c1 (stereo not drawn)"
  measurement.label: "EC50"
  unit.label: "nM"
  qualifier.sign: ">"
  data.value: 10000
- compound: "CCCCNC(=O)/C=C/c1ccc(OC)c(S(=O)(=O)Nc2ccc3c(c2)C(N(C)C(=O)Cc2cccc(OC)c2)CCC3)c1 (stereo not drawn)"
  measurement.label: "EC50"
  unit.label: "nM"
  qualifier.sign: ">"
  data.value: 10000
- compound: "COc1cccc(CC(=O)N(C)C2CCCc3ccc(NS(=O)(=O)c4cc(/C=C/C(=O)NCCN(C)C)ccc4OC)cc32)c1 (stereo not drawn)"
  measurement.label: "EC50"
  unit.label: "nM"
  qualifier.sign: "="
  data.value: 2410
- compound: "COc1cccc(CC(=O)N(C)C2CCCc3ccc(NS(=O)(=O)c4cc(-c5ccccc5)ccc4OC)cc32)c1 (stereo not drawn)"
  measurement.label: "EC50"
  unit.label: "nM"
  qualifier.sign: "="
  data.value: 1290
- compound: "COc1cccc(CC(=O)N(C)C2CCCc3ccc(NS(=O)(=O)c4cc(C(=O)N(C)C)ccc4OC)cc32)c1 (stereo not drawn)"
  measurement.label: "EC50"
  unit.label: "nM"
  qualifier.sign: "="
  data.value: 146
- compound: "COc1cccc(CC(=O)N(C)C2CCCc3ccc(NS(=O)(=O)c4cc(/C=C/C(=O)Nc5ccccc5)ccc4OC)cc32)c1 (stereo not drawn)"
  measurement.label: "EC50"
  unit.label: "nM"
  qualifier.sign: "="
  data.value: 3290
